Tested on: HeLa (cervical cancer) cell line
test_method_notes: MTT cell viability assay, HeLa
Format: cell-based, human
experimental_setup: MTT, 72 h, 1-100 µM, mean ± SD
endpoint: IC50 (µM)
Give bare numbers, in µM.

Please go through the list and note IC50 for each compound.
1. Cc1cc(S(=O)(=O)N=c2[nH]c3ccccc3[nH]2)c(SCc2nc(N)nc(NCc3ccccc3)n2)cc1Cl
2. Cc1cc(S(=O)(=O)N=c2[nH]c3ccc(Cl)cc3[nH]2)c(SCc2nc(N)nc(N3CCN(c4ccc(F)cc4)CC3)n2)cc1Cl
3. COc1ccc(N2CCN(c3nc(N)nc(CSc4cc(Cl)c(C)cc4S(=O)(=O)N=c4[nH]c5ccccc5[nH]4)n3)CC2)cc1
4. Cc1cc(S(=O)(=O)N=c2[nH]c3ccccc3[nH]2)c(SCc2nc(N)nc(N3CCN(c4ccc([N+](=O)[O-])cc4)CC3)n2)cc1Cl
5. N.N.[Cl][Pt][Cl] [cisplatin, reference compound]
6. Cc1cc(S(=O)(=O)N=c2[nH]c3ccccc3[nH]2)c(SCc2nc(N)nc(N3CCOCC3)n2)cc1Cl
7. Cc1cc(S(=O)(=O)N=c2[nH]c3ccccc3[nH]2)c(SCc2nc(N)nc(N3CCN(c4ccc(C(F)(F)F)cc4)CC3)n2)cc1Cl

1. 92
2. 18
3. 74
4. 56
5. 3.8
6. 86
7. 11
